- study target: C1r from human plasma, activated, two-chain form (Homo sapiens, UniProt P00736)
- Sequence (P00736 18-463 partner limits assumed): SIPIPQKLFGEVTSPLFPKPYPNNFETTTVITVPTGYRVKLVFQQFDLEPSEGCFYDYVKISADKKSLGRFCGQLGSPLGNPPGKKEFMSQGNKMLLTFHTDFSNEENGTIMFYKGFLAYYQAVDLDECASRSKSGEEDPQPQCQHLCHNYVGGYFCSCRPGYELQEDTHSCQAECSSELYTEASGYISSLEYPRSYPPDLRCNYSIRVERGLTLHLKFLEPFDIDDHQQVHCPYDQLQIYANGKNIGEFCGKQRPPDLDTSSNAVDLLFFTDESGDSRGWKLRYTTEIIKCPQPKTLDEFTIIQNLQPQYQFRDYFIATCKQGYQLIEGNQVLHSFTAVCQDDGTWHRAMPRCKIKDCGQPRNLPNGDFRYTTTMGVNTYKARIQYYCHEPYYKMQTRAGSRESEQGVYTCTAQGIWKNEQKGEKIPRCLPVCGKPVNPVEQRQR
- Sequence (P00736 464-705 limits assumed): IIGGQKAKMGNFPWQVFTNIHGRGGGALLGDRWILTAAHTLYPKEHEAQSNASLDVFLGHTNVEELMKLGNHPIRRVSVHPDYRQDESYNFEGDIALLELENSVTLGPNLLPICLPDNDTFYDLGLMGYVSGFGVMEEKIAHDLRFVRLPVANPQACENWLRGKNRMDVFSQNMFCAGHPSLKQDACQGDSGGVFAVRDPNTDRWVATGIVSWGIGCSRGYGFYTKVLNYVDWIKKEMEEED
- assay name: Color substrate test for C1r inhibition (Example A)
- conditions: amidolytic C1r activity, substrate Cbz-Gly-Arg-S-Bzl; read-out: C1R IC50 according to Example A
pIC50: −log10 of the molar value.
readout type: pIC50

(A) N=C(N)c1csc(CNC(=O)[C@@H]2C=CCN2C(=O)[C@@H](CC2CCCCC2)NCC(=O)O)c1
(B) N=C(N)c1csc(CNC(=O)C2C=CCN2C(=O)C(CC2CCCCC2)NCC(=O)O)c1Cl (stereo not shown)
(C) N=C(N)c1csc(CNC(=O)[C@@H]2C=CCN2C(=O)C(NCC(=O)O)C2CCCC2)c1 (stereo partly shown)
-- ask Quick one: which order do the items above go in by pIC50, smallest to largest? Your answer should be the labels, listed in the requested order.
-- reply B, A, C
(B: 4.70, A: 5.00, C: 6.15)

Source: patent US6683055B1
